Target: M1 acetylcholine receptors (Homo sapiens)
Sequence (P11229 1-460): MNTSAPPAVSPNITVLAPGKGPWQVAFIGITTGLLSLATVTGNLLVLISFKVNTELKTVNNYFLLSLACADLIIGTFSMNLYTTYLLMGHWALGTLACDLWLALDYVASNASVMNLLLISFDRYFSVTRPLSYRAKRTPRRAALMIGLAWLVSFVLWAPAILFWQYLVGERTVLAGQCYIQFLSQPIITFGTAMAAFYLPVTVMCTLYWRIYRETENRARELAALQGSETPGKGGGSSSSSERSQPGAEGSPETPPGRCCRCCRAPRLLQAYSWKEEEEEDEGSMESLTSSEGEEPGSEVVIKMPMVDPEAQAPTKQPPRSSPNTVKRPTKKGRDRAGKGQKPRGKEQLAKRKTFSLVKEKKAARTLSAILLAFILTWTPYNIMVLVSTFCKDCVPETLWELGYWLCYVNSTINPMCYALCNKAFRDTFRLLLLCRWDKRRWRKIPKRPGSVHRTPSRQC
Assay: stimulation of phosphoinositide (PI) hydrolysis in CHO cells transfected with M1 receptor cDNA
Type: cell-based
Conditions: CHO, 1 h, read-out: % PI Hydrolysis ml receptors in CHO cells 30x Ki (μM) carb=100%
Parameter: Emax (%)

CNC(=S)O[C@H]1CN2CC[C@H]1C2 (relative stereo) | 21.8
CNC(=O)O[C@H]1CN2CC[C@H]1C2 (single isomer, unassigned) [Example 3] | 71.9
CCNC(=O)O[C@H]1CN2CC[C@H]1C2 (single isomer, unassigned) | 58.8
C#CCNC(=O)O[C@H]1CN2CC[C@H]1C2 (single isomer, unassigned) | 39.4
CNC(=O)O[C@H]1CN2CC[C@H]1C2 (relative stereo) [Example 1] | 61.9
O=C(NC1CC1)O[C@H]1CN2CC[C@H]1C2 (relative stereo) | 10.1
